- System: HMLE_sh_eGFP viability, CellTiter-Glo luminescence, 72 h
- measurement_protocol: cytotoxicity in HMLE control line with eGFP shRNA, dose response, counter-screen for HMLE_sh_ECad selective toxicity project, cell-based, HMLE_sh_eGFP, luminescence (AID 463074);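 further: counterscreen control line to flag general toxicity for the HMLE_sh_ECad screen; potency for loss of viability as luminescence drops below DMSO wells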
Field: AC50. Provide a value for each of the molecules that follow.

1. CC(=O)N1c2ccc(Cl)cc2C2C=CCC2C1c1cccc2ccccc12 (stereo not given) | 5.36 µM
2. COC(=O)C1=C(C)N(Cc2ccccc2)C(=NCc2cccc(Cl)c2)N[C@H]1c1ccccc1 | 7.17 µM
3. CN1CCc2c(sc(NC(=O)c3ccc(S(=O)(=O)N4CCc5ccccc54)cc3)c2C(N)=O)C1 | 5.01 µM

Below are some molecules; for each one, tell me its AC50.
1. Cc1cc(SCC(=O)N/N=C/c2ccc(O)cc2O)nc2ccccc12
2. Cn1c(-c2ccccc2)cnc1NCc1ccc(-c2ccccc2)cc1
3. Oc1ccccc1/C=N/Nc1nccnc1Cl
4. CC(=O)Nc1ccc(-c2csc(NC(=O)CCCc3cccs3)n2)cc1
5. Cn1cccc1/C=C1\SC(=S)N(Nc2ccccc2)C1=O
6. CCc1ccc2c(c1)C1(C(=O)N2)N2CCCC2C(C(=O)c2ccc3ccccc3c2)C12C(=O)Nc1ccccc12 (stereo not given)
7. CCCCCc1cc(=O)oc2c(C(CCN3CCCCC3)c3cc(OC)c(OC)c(OC)c3)c(OC)cc(OC)c12 (stereo not given)

[A]
1: 4.75 µM; 2: 0.683 µM; 3: 5.91 µM; 4: 0.986 µM; 5: 2.31 µM; 6: 3.69 µM; 7: 6.95 µM
